Entries and their FIG. 30 FACS value (IC17=0, DQN0139bb=100)
target: T1, HLA-DQ2.5/33mer gliadin peptide complex on Ba/F3 cells (human; wheat); assay: FACS
T1 construct: also called Ba/F3-HLA-DQ2.5/33mer gliadin peptide; HLA-DQ2.5/gliadin peptide complex
observed.property: FIG. 30 FACS value (IC17=0, DQN0139bb=100)

binder | measured.value
DQN0324hh (antibody, human IgG1, kappa, V domains shown, also called DQN0324Lh) VH: QSLEESGGDLVKPGASLALTCTASGFSLINNYYMCWVRQAPGKGLEWIACIYAGLGGWTYYASWAKGRFTISKTSSTTVTLQMSSLTVADAATYFCARAATTYYHFNLWGPGTLVTVSS VL: AVVLTQTESPVSAAVGDTVTIKCQASQSIGNALAWYQQKPGQPPKLLIYDASTLASGVPSRFKGSGSGTQFTLTISDLECADAATYYCQSYDYGSSADTYTFGGGTKVEIKR | 59.2
DQN0282ff (antibody, human IgG1, kappa, V domains shown, also called DQN0282Hf; DQN0282Lf) VH: QSVEESGGRLVTPGTPLTLSCKASGFDFSIYYMSWVRQAPGKGLEWIGVINSGGGVTWYASWVKGRFTISKTSTTVDLKITSPTTEDTATYFCARLGDSNHYDLWGPGTLVTVSS VL: AYDMTQTPSSVSAAVGGTVTIKCQASETISSYLAWYQQKPGQRPQLLIYDASNLASGVPSRFKGSGSGTEFTLTISDLECADAATYYCQTHYYITSTTFGGGTKVEIKR | 73.5
DQN0334bb (antibody, human IgG1, kappa, V domains shown, also called DQN0334Hb; DQN0334Lb) VH: QQQLEESGGDLVQPEGSLTLTCKASGFDFSFNAMCWVRQAPGRGPEWIACIYNGNGSTYYASWAKGRFTISKTSSTSVTLQMTSLTAADTATYFCARGGYGLGYAGYGDVNYFNLWGPGTLVTVSS VL: AVVLTQTASPVSAPVGGTVTIKCQASEDIYFLLAWYRQKPGQPPKLLIYGASTLASGVPSRFKGSGSGTEYTLTISDLECADAATYYCQSYWYGDSGPNTFGGGTKVEIKR | 65.9
DQN0235ee (antibody, human IgG1, kappa, V domains shown, also called DQN0235He; DQN0235Le) VH: QQQLEESGGGLVKPGGTLTLTCKAGIDFSTYYYMCWVRQAPGKRPEWIACIFDGDGSTYYASWVNGRFTISKASSTTVTLRMTSLTAADTATYFCARSAGGSSSFGYFNLWGPGTLVTVSS VL: AYDMTQTPSSVSAAVGGTVTIKCQASQSISSSYLAWYHQKPGQSPKLLIYSASTLASGVPSRFKGSGSGTEFTLTISDLACADAATYYCQSYYYFSSNAWHTFGGGTKVEIKR | 70.1
DQN0333hh (antibody, human IgG1, kappa, V domains shown, also called DQN0333Lh) VH: QSVEESGGRLVMPGGSLTLTCTASGFSLSSYYMNWVRQAPGKGLEWIGVIYSTDITDYATWATGRFTISKTSTTVDLKMTSLTAADTATYFCARELSPTTSGYIAYLWGPGTLVTVSS VL: AYDMTQTPASVEVAVGGTVTIKCQASQSISSYLAWYQQKPGQPPKLLIYSASTLASGVPSRFKGSGSGTQFTLTVIDVQCDDAATYYCQQTYSGKNVINTFGGGTKVEIKR | 106
